Kindly state Biodistribution of radioactivity, Blood for each of the entries shown.
Test: In vivo radioactivity biodistribution experiment in normal mice (Example 1, Table 13)
Parameters: species or system ddY mice
Conditions: blood, 10 min after injection

Please fill in: Biodistribution of radioactivity, Blood reported for O=C1/C(=C/c2ccc(O)cc2)Oc2ccc([125I])cc21 [[^125I]20] = 2.77 (0.28) % injected dose per gram

Please fill in: Biodistribution of radioactivity, Blood reported for COc1ccc(/C=C2\Oc3ccc([125I])cc3C2=O)cc1 [[^125I]17] = 1.51 (0.23) % injected dose per gram

Please fill in: Biodistribution of radioactivity, Blood reported for Nc1ccc(/C=C2\Oc3ccc([125I])cc3C2=O)cc1 [[^125I]14] = 4.38 (0.52) % injected dose per gram

Please fill in: Biodistribution of radioactivity, Blood reported for CNc1ccc(/C=C2\Oc3ccc([125I])cc3C2=O)cc1 [[^125I]12] = 2.72 (1.01) % injected dose per gram

Please fill in: Biodistribution of radioactivity, Blood reported for CN(C)c1ccc(/C=C2\Oc3ccc([125I])cc3C2=O)cc1 [[^125I]7] = 1.96 (0.34) % injected dose per gram
